# Tested target: full-length beta-Catenin (Uniprot ID P35222) (Homo sapiens (Human)) (UniProt P35222)
# Sequence (P35222 2-781 limits assumed): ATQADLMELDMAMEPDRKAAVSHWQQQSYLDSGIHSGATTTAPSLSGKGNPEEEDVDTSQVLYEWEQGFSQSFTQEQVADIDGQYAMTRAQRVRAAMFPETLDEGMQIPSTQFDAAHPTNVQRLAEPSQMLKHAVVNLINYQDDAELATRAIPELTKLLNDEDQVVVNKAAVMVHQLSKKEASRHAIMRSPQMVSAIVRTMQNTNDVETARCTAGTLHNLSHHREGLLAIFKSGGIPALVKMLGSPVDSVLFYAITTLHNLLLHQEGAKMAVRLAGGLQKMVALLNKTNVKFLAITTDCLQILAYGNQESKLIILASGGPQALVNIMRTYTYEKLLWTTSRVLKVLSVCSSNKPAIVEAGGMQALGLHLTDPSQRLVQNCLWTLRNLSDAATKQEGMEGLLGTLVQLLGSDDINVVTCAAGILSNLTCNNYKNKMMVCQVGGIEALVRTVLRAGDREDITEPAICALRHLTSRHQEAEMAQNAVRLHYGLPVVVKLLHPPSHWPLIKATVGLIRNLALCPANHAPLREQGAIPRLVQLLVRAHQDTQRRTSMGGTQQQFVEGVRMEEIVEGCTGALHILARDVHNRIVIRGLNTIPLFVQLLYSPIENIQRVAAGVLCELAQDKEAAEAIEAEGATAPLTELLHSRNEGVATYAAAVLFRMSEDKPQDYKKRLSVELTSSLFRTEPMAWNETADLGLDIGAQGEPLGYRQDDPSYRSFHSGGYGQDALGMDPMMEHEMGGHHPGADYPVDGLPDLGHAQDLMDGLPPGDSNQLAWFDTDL
# Assay details: fluorescence polarization competition; full-length beta-catenin, 5FAM-TCF4(10-53) probe as competitor
Starred links: 1 amine or outer side, 2 acyl side, 3 side chain; linkers in the order of their positions; H or OH if unused. Positions of bridges follow the written chain, without caps; N, C: chain ends. Non-standard residues stand in square brackets, D forms with d. Primed or numbered codes have the meaning given here. No end group written: not given here. *: point of attachment. PyrS2″ = (S)-3-amino-1-((pent-4-en-1-yloxy)carbonyl)pyrrolidine-3-carboxylic acid (stapling residue), C=CCCCOC(=O)N1CC[C@@](N[*:1])(C(=O)[*:2])C1; B5(4) = 2,2-bis(4-pentenyl)glycine = 2-amino-2-(pent-4-en-1-yl)hept-6-enoic acid (stitching residue), C=CCCCC(CCCC=C)(N[*:1])C(=O)[*:2]; B5(5) = 2,2-bis(4-pentenyl)glycine, 2-amino-2-(pent-4-en-1-yl)hept-6-enoic acid (stitching residue), C=CCCCC(CCCC=C)(N[*:1])C(=O)[*:2]; PyrS2 = (S)-3-amino-1-((pent-4-en-1-yloxy)carbonyl)pyrrolidine-3-carboxylic acid, C=CCCCOC(=O)N1CC[C@@](N[*:1])(C(=O)[*:2])C1; ProSAm3 = (allylsulfonyl)-D-proline, C=CCS(=O)(=O)N1CCC[C@@H]1C(=O)*; Bta = N[C@@H](Cc1csc2ccccc12)C(=O)O; αAllylPro = C=CC[C@@]1(C(=O)O)CCCN1; tBuAla = CC(C)(C)C[C@H](N)C(=O)O; 3Thi = N[C@@H](Cc1ccsc1)C(=O)O; Aib = CC(C)(N)C(=O)O

{"Binder": "Ac-[αAllylPro]D[tBuAla][B5(5)]NT[Aib]AFN[PyrS2″][3Thi][Bta]W-NH2 (staple 1-4, 4-11) [Ac-PL3-Asp-Npg-B5-Asn-Thr-Aib-Ala-Phe-Asn-PyrS2-3Thi-BztA-Trp-NH2]", "IC50 (nM)": 754}
{"Binder": "[ProSAm3]D[tBuAla][B5(4)]DDAAFN[PyrS2″][3Thi][Bta]Q-NH2 (staple (positions not given here); staple 4-11; not fully specified (bridges); printed as ProSAm3-Asp-Npg-B5-Asp-Asp-Ala-Ala-Phe-Asn-PyrS2-3Thi-BztA-Gln-NH2; also: staple isomer of later-eluting HPLC peak) [I-1577]", "IC50 (nM)": 45}
{"Binder": "Ac-[αAllylPro]D[tBuAla][B5(4)]NYAAFN[PyrS2][3Thi][Bta]Q-NH2 (staple 1-4, 4-11; also: staple isomer of earlier-eluting HPLC peak) [I-1568]", "IC50 (nM)": 7180}
